- testedTarget: GIPR (CHO-K1-hGIPR cells) (Homo sapiens, UniProt P48546)
- Construct: host or cells: CHO-K1
- Sequence (P48546 22-466): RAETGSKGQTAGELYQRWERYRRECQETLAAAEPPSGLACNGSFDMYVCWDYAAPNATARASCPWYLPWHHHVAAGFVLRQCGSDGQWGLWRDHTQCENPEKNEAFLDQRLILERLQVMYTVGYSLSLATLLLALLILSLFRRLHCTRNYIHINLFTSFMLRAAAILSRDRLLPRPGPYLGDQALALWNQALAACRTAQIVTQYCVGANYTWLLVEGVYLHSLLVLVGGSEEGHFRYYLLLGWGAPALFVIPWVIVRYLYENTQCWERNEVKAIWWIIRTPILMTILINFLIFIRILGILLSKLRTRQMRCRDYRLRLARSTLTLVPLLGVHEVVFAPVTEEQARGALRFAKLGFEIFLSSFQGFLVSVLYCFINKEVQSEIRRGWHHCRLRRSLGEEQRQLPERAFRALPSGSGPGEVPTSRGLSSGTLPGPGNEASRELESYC
- protocolNotes: FACS binding assay
- conditionDetails: competition with 20 nM GIP-057, 4° C. for 1 hour, read-out: pIC50 Category (converted)
- Experimental: In order to determine binding of compounds according to the present invention to GIPR-expressing cells, a FACS binding assay was established. […] Cells were analyzed in an Attune NxT flow cytometer. Median fluorescence intensities (MFI) of the APC/Cy5-channel were calculated by Attune NxT software. […]
*1 amine or outer side, *2 acyl side, *3 side chain or, on linkers, in order; H or OH if unused. Where a SMILES comes first, the peptide text is derived from it. Bridges are numbered along the chain shown (N, C = ends). [ ]: non-standard residue; d: D form. X19 = O=C(O)CN1CCN(CC(=O)O)CCN(CC(=O)N2CCN(Cc3cc(C[*:1])cc(C[*:2])c3)CC2)CCN(CC(=O)O)CC1; Trp(5-Cl) = N[C@@H](Cc1c[nH]c2ccc(Cl)cc12)C(=O)O; Oic = O=C(O)[C@@H]1C[C@@H]2CCCC[C@@H]2N1; 1Nal = N[C@@H](Cc1cccc2ccccc12)C(=O)O; mXylylene = c1cc(C[*:1])cc(C[*:2])c1; Hyp = O=C(O)[C@@H]1C[C@@H](O)CN1; Suc = O=C(CCC(=O)[*:2])[*:1]; hCys = N[C@@H](CCS)C(=O)O; Thp = NC1(C(=O)O)CCOCC1; Aib = CC(C)(N)C(=O)O
# IC50 per record follows

INSERT INTO assay_data (compound, reportedmetric, result) VALUES
  ('CC[C@H](C)[C@@H]1NC(=O)[C@H](CC(C)C)NC(=O)[C@H](C)NC(=O)[C@@H](NC(=O)[C@H](CC(C)C)NC(=O)[C@H](CCC(=O)O)NC(=O)[C@@H]2CCCN2C(=O)[C@H](C)NC(=O)[C@H](Cc2c[nH]c3ccccc23)NC(=O)[C@H](CC(=O)O)NC(=O)[C@H](Cc2ccc(O)cc2)NC(=O)[C@@H](N)CCSC)CSCc2cccc(c2)CSC[C@@H](C(N)=O)NC1=O [GIP-334] (H-MYDWAPELCALIC-NH2; linker 9-13 via mXylylene)', 'IC50', '> 1000 nM'),
  ('CC[C@H](C)[C@@H]1NC(=O)[C@H](CC(C)C)NC(=O)C(C)(C)NC(=O)[C@@H](NC(=O)[C@H](CC(C)C)NC(=O)[C@H](CCC(=O)O)NC(=O)[C@@H]2C[C@@H]3CCCC[C@@H]3N2C(=O)[C@H](Cc2cccc3ccccc23)NC(=O)[C@H](Cc2c[nH]c3ccccc23)NC(=O)[C@H](CC(=O)O)NC(C)=O)CSCc2cccc(c2)CSC[C@@H](C(N)=O)NC1=O [GIP-252] (Ac-DW[1Nal][Oic]ELC[Aib]LIC-NH2; linker 7-11 via mXylylene)', 'IC50', '10 to 79.4 nM'),
  ('CC[C@H](C)[C@@H]1NC(=O)[C@H](CC(C)C)NC(=O)[C@H](C)NC(=O)[C@@H](NC(=O)[C@H](CC(C)C)NC(=O)[C@H](CCC(=O)O)NC(=O)[C@@H]2CCCN2C(=O)[C@H](Cc2c[nH]c3ccccc23)NC(=O)[C@H](Cc2c[nH]c3ccccc23)NC(=O)[C@H](CC(=O)O)NC(=O)[C@H](Cc2ccc(O)cc2)NC(=O)[C@@H](N)CCSC)CSCc2cccc(c2)CSC[C@@H](C(N)=O)NC1=O [GIP-254] (H-MYDWWPELCALIC-NH2; linker 9-13 via mXylylene)', 'IC50', '10 to 79.4 nM'),
  ('CC[C@H](C)[C@@H]1NC(=O)[C@H](CC(C)C)NC(=O)C2(CCOCC2)NC(=O)[C@@H](NC(=O)[C@@H](CC(C)C)NC(=O)[C@H](CCC(=O)O)NC(=O)[C@@H]2C[C@@H](O)CN2C(=O)[C@H](Cc2c[nH]c3ccc(Cl)cc23)NC(=O)[C@H](Cc2c[nH]c3ccccc23)NC(=O)[C@H](CC(=O)O)NC(C)=O)CCSSCC[C@@H](C(N)=O)NC1=O [GIP-363] (Ac-DW[Trp(5-Cl)][Hyp]E[dL][hCys][Thp]LI[hCys]-NH2; disulfide 7-11)', 'IC50', '10 to 79.4 nM');

# next compound below
// IC50 lookup, compound = CC[C@H](C)[C@@H]1NC(=O)[C@H](CC(C)C)NC(=O)[C@@H](C)NC(=O)[C@@H](NC(=O)[C@@H](CC(C)C)NC(=O)[C@H](CCC(=O)O)NC(=O)[C@@H]2CCCN2C(=O)[C@H](Cc2c[nH]c3ccccc23)NC(=O)[C@H](Cc2c[nH]c3ccccc23)NC(=O)CCC(=O)O)CSCc2cc(cc(CN3CCN(C(=O)CN4CCN(CC(=O)O)CCN(CC(=O)O)CCN(CC(=O)O)CC4)CC3)c2)CSC[C@@H](C(N)=O)NC1=O [GIP-286] (Suc-WWPE[dL]C[dA]LIC-NH2; linker 6-10 via X19) , result: > 1000 nM
